assay: Protein expression levels of GDH variants; parameters: species or system Escherichia coli; conditions: expressed in E. coli
Property: Expression level (μg protein/ml culture)
Give bare numbers, in μg protein/ml culture.

q: Please give the measured Expression level for this molecule: I195R-Y39Q: Bs GDH variant I195R Y39Q (protein) MYPDLKGKVVAITGAASGLGKAMAIRFGKEQAKVVINYQSNKQDPNEVKEEVIKAGGEAVVVQGDVTKEEDVKNIVQTAIKEFGTLDIMINNAGLENPVPSHEMPLKDWDKVIGTNLTGAFLGSREAIKYFVENDIKGNVINMSSVHEVIPWPLFVHYAASKGGIKLMTETLALEYAPKGIRVNNIGPGAINTPRNAEKFADPKQKADVESMIPMGYIGEPEEIAAVAAWLASKEASYVTGITLFADGGMTQYPSFQAGRG
a: 57.60
